Tested on: Staphylococcus aureus FDA 209PJc-1
Experiment: Antibacterial activity, agar-dilution MIC, organism No. 1
Assay type: cell-based
Details: Staphylococcus aureus, FDA209PJC1; Organism No. 1, bouillon-agar; read-out: Minimum Inhibitory Concentration
ASSAY METRIC: log10 of MIC (log10 of the value in µg/mL)
Values reflect log10 of reported MIC (µg/mL).

## Task Param item = [C-]#[N+]C12CC3(/C=C/C(=O)OCc4ccccc4)OC3C1O2 (stereo not drawn) [Compound No. 10, benzyl β-substituted acrylate] ; retrieve measured log10 of MIC.
## Result -0.41

## Task Param item = [C-]#[N+]C12CC3(/C=C/C(N)=O)OC3C1O2 (centres unmarked) [Compound No. 19] ; retrieve measured log10 of MIC.
## Result 0.80

## Task Param item = [C-]#[N+]C12CC3(/C=C/C(=O)N(C(=O)NC4CCCCC4)C4CCCCC4)OC3C1O2 (centres unmarked) [Compound No. 25] ; retrieve measured log10 of MIC.
## Result -1.00

## Task Param item = [C-]#[N+]C12CC3(/C=C/C(=O)Nc4ccc(F)cc4)OC3C1O2 (centres unmarked) [compound 43] ; retrieve measured log10 of MIC.
## Result -0.11

## Task Param item = [C-]#[N+]C12CC3(/C=C/C(=O)N[C@@H](CC(=O)OC)C(=O)OC)OC3C1O2 (some centres unmarked) [Compound No. 27] ; retrieve measured log10 of MIC.
## Result 1.40

----------
Tested on: Staphylococcus aureus Terajima
Experiment: Antibacterial activity, agar-dilution MIC, organism No. 2
Assay type: cell-based
Conditions: Staphylococcus aureus; Organism No. 2, bouillon-agar; read-out: Minimum Inhibitory Concentration
Response field label takes rule met when MIC is strictly below 6 µg/mL and rule not met in all other cases.

## Task API: query returns whether the molecule falls strictly under 6 µg/mL in MIC. Query: [C-]#[N+]C12CC3(/C=C/C(=O)N4CCC[C@H]4C(=O)OCc4ccccc4)OC3C1O2 (some centres unmarked)
## Result rule not met

## Task API: query returns whether the molecule falls strictly under 6 µg/mL in MIC. Query: [C-]#[N+]C12CC3(/C=C/C(=O)OCC(=O)c4cccc(OC)c4)OC3C1O2 (centres unmarked)
## Result rule not met

## Task API: query returns whether the molecule falls strictly under 6 µg/mL in MIC. Query: [C-]#[N+]C12CC3(/C=C/C(=O)Nc4ccc(C(C)=O)cc4)OC3C1O2 (centres unmarked)
## Result rule met

## Task API: query returns whether the molecule falls strictly under 6 µg/mL in MIC. Query: [C-]#[N+]C12CC3(/C=C/C(=O)N(C(=O)NC4CCCCC4)C4CCCCC4)OC3C1O2 (centres unmarked)
## Result rule met

## Task API: query returns whether the molecule falls strictly under 6 µg/mL in MIC. Query: [C-]#[N+]C12CC3(/C=C/C(=O)OC)OC3C1O2 (centres unmarked)
## Result rule not met

## Task API: query returns whether the molecule falls strictly under 6 µg/mL in MIC. Query: [C-]#[N+]C12CC3(/C=C/C(=O)OCc4ccccc4[N+](=O)[O-])OC3C1O2 (centres unmarked)
## Result rule met

## Task API: query returns whether the molecule falls strictly under 6 µg/mL in MIC. Query: [C-]#[N+]C12CC3(/C=C/C(=O)Nc4ccc(C(=O)O)cc4)OC3C1O2 (centres unmarked)
## Result rule not met

## Task API: query returns whether the molecule falls strictly under 6 µg/mL in MIC. Query: [C-]#[N+]C12CC3(/C=C/C(=O)OCc4ccc([N+](=O)[O-])cc4)OC3C1O2 (centres unmarked)
## Result rule not met

## Task API: query returns whether the molecule falls strictly under 6 µg/mL in MIC. Query: [C-]#[N+]C12CC3(/C=C/C(=O)OCC)OC3C1O2 (stereo not drawn) [Compound No. 2, ethyl β-substituted acrylate]
## Result rule not met

## Task API: query returns whether the molecule falls strictly under 6 µg/mL in MIC. Query: [C-]#[N+]C12CC3(/C=C/C(=O)OCc4cccc(OC)c4)OC3C1O2 (centres unmarked)
## Result rule met

## Task API: query returns whether the molecule falls strictly under 6 µg/mL in MIC. Query: [C-]#[N+]C12CC3(/C=C/C(=O)Nc4ccc(Cl)cc4)OC3C1O2 (centres unmarked)
## Result rule met

## Task API: query returns whether the molecule falls strictly under 6 µg/mL in MIC. Query: [C-]#[N+]C12CC3(/C=C/C(=O)Nc4ccc(N)cc4)OC3C1O2 (centres unmarked)
## Result rule not met

## Task API: query returns whether the molecule falls strictly under 6 µg/mL in MIC. Query: [C-]#[N+]C12CC3(/C=C/C(=O)Nc4cccc(C(=O)OC)c4)OC3C1O2 (centres unmarked)
## Result rule met

## Task API: query returns whether the molecule falls strictly under 6 µg/mL in MIC. Query: [C-]#[N+]C12CC3(/C=C/C(=O)OCC(=O)c4ccccc4)OC3C1O2 (centres unmarked)
## Result rule met

## Task API: query returns whether the molecule falls strictly under 6 µg/mL in MIC. Query: [C-]#[N+]C12CC3(/C=C/C(=O)Nc4ccccc4OC)OC3C1O2 (centres unmarked)
## Result rule met

## Task API: query returns whether the molecule falls strictly under 6 µg/mL in MIC. Query: [C-]#[N+]C12CC3(/C=C/C(=O)Nc4ccccc4C)OC3C1O2 (centres unmarked)
## Result rule met

## Task API: query returns whether the molecule falls strictly under 6 µg/mL in MIC. Query: [C-]#[N+]C12CC3(/C=C/C(=O)Nc4ccc(OC(C)C)cc4)OC3C1O2 (centres unmarked)
## Result rule not met

## Task API: query returns whether the molecule falls strictly under 6 µg/mL in MIC. Query: [C-]#[N+]C12CC3(/C=C/C(=O)OCc4cccc([N+](=O)[O-])c4)OC3C1O2 (centres unmarked)
## Result rule not met

## Task API: query returns whether the molecule falls strictly under 6 µg/mL in MIC. Query: [C-]#[N+]C12CC3(/C=C/C(=O)NC4=NCCS4)OC3C1O2 (centres unmarked)
## Result rule not met

## Task API: query returns whether the molecule falls strictly under 6 µg/mL in MIC. Query: [C-]#[N+]C12CC3(/C=C/C(N)=O)OC3C1O2 (centres unmarked)
## Result rule not met

## Task API: query returns whether the molecule falls strictly under 6 µg/mL in MIC. Query: [C-]#[N+]C12CC3(/C=C/C(=O)OCC(=O)c4ccc(Br)cc4)OC3C1O2 (centres unmarked) [Compound No. 4, p-bromophenacylβ-substituted acrylate]
## Result rule met

## Task API: query returns whether the molecule falls strictly under 6 µg/mL in MIC. Query: [C-]#[N+]C12CC3(/C=C/C(=O)N[C@@H](CC(=O)OC)C(=O)OC)OC3C1O2 (some centres unmarked)
## Result rule not met

## Task API: query returns whether the molecule falls strictly under 6 µg/mL in MIC. Query: [C-]#[N+]C12CC3(/C=C/C(=O)Nc4nccs4)OC3C1O2 (centres unmarked)
## Result rule met

## Task API: query returns whether the molecule falls strictly under 6 µg/mL in MIC. Query: [C-]#[N+]C12CC3(/C=C/C(=O)OCc4cc([N+](=O)[O-])ccc4OC)OC3C1O2 (centres unmarked)
## Result rule not met

## Task API: query returns whether the molecule falls strictly under 6 µg/mL in MIC. Query: [C-]#[N+]C12CC3(/C=C/C(=O)Nc4cccc(C(F)(F)F)c4)OC3C1O2 (centres unmarked)
## Result rule met

## Task API: query returns whether the molecule falls strictly under 6 µg/mL in MIC. Query: [C-]#[N+]C12CC3(/C=C/C(=O)NC4C(=O)N5C(C(=O)OCC(=O)c6ccc(Br)cc6)=C(C)CSC45)OC3C1O2 (centres unmarked)
## Result rule not met

## Task API: query returns whether the molecule falls strictly under 6 µg/mL in MIC. Query: [C-]#[N+]C12CC3(/C=C/C(=O)Nc4ccc(S(N)(=O)=O)cc4)OC3C1O2 (centres unmarked)
## Result rule not met

## Task API: query returns whether the molecule falls strictly under 6 µg/mL in MIC. Query: [C-]#[N+]C12CC3(/C=C/C(=O)Nc4cccc(N)c4)OC3C1O2 (centres unmarked)
## Result rule not met

## Task API: query returns whether the molecule falls strictly under 6 µg/mL in MIC. Query: [C-]#[N+]C12CC3(/C=C/C(=O)O)OC3C1O2 (stereo not drawn) [α substituted acrylic acid, reference compound]
## Result rule not met

## Task API: query returns whether the molecule falls strictly under 6 µg/mL in MIC. Query: [C-]#[N+]C12CC3(/C=C/C(=O)Nc4ccccc4O)OC3C1O2 (centres unmarked)
## Result rule met

## Task API: query returns whether the molecule falls strictly under 6 µg/mL in MIC. Query: [C-]#[N+]C12CC3(/C=C/C(=O)N[C@@H](CC(=O)OCc4ccccc4)C(=O)OCc4ccccc4)OC3C1O2 (some centres unmarked)
## Result rule not met

## Task API: query returns whether the molecule falls strictly under 6 µg/mL in MIC. Query: [C-]#[N+]C12CC3(/C=C/C(=O)N4CCCC4)OC3C1O2 (centres unmarked)
## Result rule not met
